Target: T1, recombinant human TIGIT (Sino Biological) (human, UniProt Q495A1 22-138)
T1 construct: Bought protein; NP_776160.2; also called human TIGIT antigen; hTIGIT
T1 sequence: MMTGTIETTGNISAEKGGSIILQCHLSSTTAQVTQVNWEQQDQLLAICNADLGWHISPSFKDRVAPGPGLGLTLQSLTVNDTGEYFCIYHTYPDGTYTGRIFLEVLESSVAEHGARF
Test: SPR (Biacore T200), single cycle kinetics, IgG from supernatant captured on anti-human chip, TIGIT as analyte, 1:1 fit;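 note: measured at 25 °C in HBS-P+ with 1% BSA, four ascending TIGIT concentrations, 210 s association per step, one final 900 s dissociation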
testReadout: kon (M⁻¹ s⁻¹)
Reply with just the number (in M⁻¹ s⁻¹).

Which kon reading was recorded for the binder 7A6 VH4/Vκ1 humanized antibody (human IgG1, kappa) (antibody, V domains shown, Tested as IgG in supernatant of transiently transfected HEK293 EBNA cells) VH: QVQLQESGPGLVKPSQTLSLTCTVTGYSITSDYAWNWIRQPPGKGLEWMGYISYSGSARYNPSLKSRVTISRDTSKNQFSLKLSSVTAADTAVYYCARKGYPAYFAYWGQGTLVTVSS VL: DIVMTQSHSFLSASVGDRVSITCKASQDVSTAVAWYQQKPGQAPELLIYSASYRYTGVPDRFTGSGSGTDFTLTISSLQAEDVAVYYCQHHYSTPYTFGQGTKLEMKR ? 1.73e+06

Fill in: kon of 7A6 VH3/Vκ4 humanized antibody (human IgG1, kappa) (antibody, V domains shown, Tested as IgG in supernatant of transiently transfected HEK293 EBNA cells) VH: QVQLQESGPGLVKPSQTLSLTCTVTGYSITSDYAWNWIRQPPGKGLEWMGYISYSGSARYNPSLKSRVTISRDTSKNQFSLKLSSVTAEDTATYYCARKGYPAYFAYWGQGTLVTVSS VL: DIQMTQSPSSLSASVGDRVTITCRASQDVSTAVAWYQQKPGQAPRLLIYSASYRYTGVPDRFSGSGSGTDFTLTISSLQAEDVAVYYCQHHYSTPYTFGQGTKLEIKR is ___ 1.63e+06

Name the reported kon value associated with the binder 7A6 VH4/Vκ4 humanized antibody (human IgG1, kappa) (antibody, V domains shown, also called 7A6 VH4/Vk4; 7A6VH4/Vk4) VH: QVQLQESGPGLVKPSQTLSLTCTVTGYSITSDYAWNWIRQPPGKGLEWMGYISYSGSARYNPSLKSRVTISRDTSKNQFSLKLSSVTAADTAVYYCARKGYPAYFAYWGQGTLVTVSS VL: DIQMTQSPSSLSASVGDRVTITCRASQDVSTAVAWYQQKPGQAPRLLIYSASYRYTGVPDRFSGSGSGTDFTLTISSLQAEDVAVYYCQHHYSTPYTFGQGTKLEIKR 1.49e+06

What value of measured kon is listed for 7A6 VH3/Vκ1 humanized antibody (human IgG1, kappa) (antibody, V domains shown, Tested as IgG in supernatant of transiently transfected HEK293 EBNA cells) VH: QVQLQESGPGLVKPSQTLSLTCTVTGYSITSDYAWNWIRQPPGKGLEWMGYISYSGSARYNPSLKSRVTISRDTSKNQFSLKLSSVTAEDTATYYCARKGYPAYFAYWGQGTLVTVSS VL: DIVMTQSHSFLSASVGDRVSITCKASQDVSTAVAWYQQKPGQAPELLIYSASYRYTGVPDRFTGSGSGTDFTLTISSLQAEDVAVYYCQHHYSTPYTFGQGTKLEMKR ? 2.17e+06

Report kon for 7A6 VH4/Vκ2 humanized antibody (human IgG1, kappa) (antibody, V domains shown, Tested as IgG in supernatant of transiently transfected HEK293 EBNA cells) VH: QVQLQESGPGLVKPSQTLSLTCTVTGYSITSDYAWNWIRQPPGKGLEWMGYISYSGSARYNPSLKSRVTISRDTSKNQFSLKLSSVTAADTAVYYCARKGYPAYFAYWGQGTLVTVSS VL: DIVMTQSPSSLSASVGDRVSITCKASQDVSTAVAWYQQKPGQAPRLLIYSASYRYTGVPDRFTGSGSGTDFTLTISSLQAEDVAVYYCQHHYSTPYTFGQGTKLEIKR please. 1.75e+06
